test system: OCI-AML2; assay: cell viability relative to vehicle control; higher = less cytotoxic; conditions: 10 µM; SRSF2 genotype: wt/wt;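 note: after 48 h exposure read by CellTiter-Glo luminescence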
TEST READOUT: cell viability (%)

COc1ccc(-c2cc(=O)c3c(O)c(OC)c(O)cc3o2)cc1OC [Eupatilin] | 71.2
COc1ccc2ccc(=O)oc2c1CC=C(C)C [Osthole (Osthol)] | 95.5
Cc1ccc(-c2nn(C(C)(C)C)c3ncnc(N)c23)cc1 | 78.6
C/C=C(\C)C(=O)OC1c2c(ccc3ccc(=O)oc23)OC(C)(C)C1OC(=O)/C(C)=C/C (centres undefined) [Paeruptorin B] | 103
OC[C@@H](O)[C@@H](O[C@H]1O[C@H](CO)[C@@H](O)[C@H](O)[C@H]1O)[C@H](O)[C@@H](O)CO [Maltitol] | 107
CCCCC[C@](C)(O)/C=C/[C@@H]1[C@@H](C/C=C\CCCC(=O)O)[C@@H](O)C[C@H]1O [Carboprost] | 90.1
CCOc1nc2cccc(C(=O)O)c2n1Cc1ccc(-c2ccccc2-c2noc(=O)[nH]2)cc1 [Azilsartan (TAK-536)] | 101
C=C1C[C@@]23CC[C@H]4[C@@](C)(CCC[C@@]4(C)C(=O)O)[C@@H]2CC[C@]1(O[C@@H]1O[C@@H](CO)[C@@H](O)[C@H](O)[C@@H]1O[C@@H]1O[C@@H](CO)[C@@H](O)[C@H](O)[C@@H]1O)C3 [Steviolbioside] | 103
O=C(/C=C/c1cncc(F)c1)c1c(-c2ccccc2)c2cc(Cl)ccc2[nH]c1=O | 0.16

====

As shown below, each of these compounds has a reported cell viability value.
tested on: MARIMO; test: cell viability relative to vehicle control; higher = less cytotoxic; conditions: 10 µM; SRSF2 genotype: SRSF2 P95H/wt
TEST READOUT: cell viability (%)

CSc1cccc(Nc2ncc3cc(-c4c(Cl)cccc4Cl)c(=O)n(C)c3n2)c1 | 34.3
CCCCCCCC(=O)CCc1ccc(O)c(OC)c1 [6-Paradol] | 93.3
COc1cc2ncnc(Oc3ccc(CC(=O)Nc4cnn(C(C)C)c4)cc3)c2cc1OC | 113
N[C@@H](Cc1cc(I)c(O)c(I)c1)C(=O)O [3,5-Diiodotyrosine Dihydrate] | 97
O=[N+]([O-])c1ccc2c(c1)S(=O)(=O)C=C2 [Stattic] | 0.14
O=c1[nH]c(=O)n([C@H]2C[C@H](O)[C@@H](CO)O2)cc1Br [Bromodeoxyuridine (BrdU)] | 91.2
C=C(C)[C@@H]1CCC2=CC(=O)C[C@@H](C)[C@]2(C)C1 [Nootkatone] | 100

====

As shown below, each of these molecules has a reported cell viability value.
test system: K562; experiment: cell viability relative to vehicle control; higher = less cytotoxic; conditions: 10 µM; SRSF2 genotype: SRSF2 wt/wt
Where a name gives a salt, the structure may show the parent alone.
TEST READOUT: cell viability (%)

Cc1ccc(-n2[nH]c(C)c(N=Nc3cccc(-c4cccc(C(=O)O)c4)c3O)c2=O)cc1C [Eltrombopag olamine] | 69.3
CCCCc1nc(Cl)c(CO)n1Cc1ccc(-c2ccccc2-c2nnn[nH]2)cc1 [Losartan potassium] | 104
Cc1[nH]nc(C(F)(F)F)c1Cc1sc2c(c1C(=O)N1C[C@](C)(O)CO1)c(=O)n(C)c(=O)n2C(C)C | 61.3
O=C(/C=C/c1ccc2ccccc2n1)c1ccncc1 | 0.42
COc1ccc(CCO[C@@H]2O[C@H](CO[C@@H]3OC[C@H](O)[C@H](O)[C@H]3O)[C@@H](OC(=O)/C=C/c3ccc(O)c(OC)c3)[C@H](O[C@@H]3O[C@@H](C)[C@@H](O)[C@@H](O)[C@H]3O)[C@H]2O)cc1O [Angoroside C] | 111
CCOc1cc(N2CCC(O)CC2)ccc1Nc1ncc2c(n1)N(C)c1ccccc1C(=O)N2C | 88
CCCNCC(O)COc1ccccc1C(=O)CCc1ccccc1 (stereo unspecified) [Propafenone HCl] | 79.2
N#Cc1ccc(COC[C@H]2O[C@@H](n3c(NCc4ccc(Cl)c(Cl)c4)nc4c(N)ncnc43)[C@H](O)[C@@H]2O)cc1 | 45.7
Cc1cn([C@H]2C=C[C@@H](CO)O2)c(=O)[nH]c1=O [Stavudine] | 98.3
CC(C)n1nc(-c2ccc3oc(N)nc3c2)c2c(N)ncnc21 | 29.9
COC(=O)N[C@H](C(=O)N1CC2(CC2)C[C@H]1c1nc(-c2ccc3c(c2)C(F)(F)c2cc(-c4ccc5[nH]c([C@@H]6[C@H]7CC[C@H](C7)N6C(=O)[C@@H](NC(=O)OC)C(C)C)nc5c4)ccc2-3)c[nH]1)C(C)C [Ledipasvir (GS5885)] | 84.3
